readout.label: melting point

Record excerpt, results attached:
molecule	melting point
C[C@H](O)CNc1cc(-c2ccc3c(c2)CCO3)nc2ccccc12.Cl	236 to 242 °C
Cl.OCCNc1cc(-c2ccc(Cl)cc2)nc2ccccc12	262 to 264 °C
NCC(O)CNc1cc(-c2ccc(Cl)cc2)nc2ccccc12 (racemic)	283 to 287 °C
Cl.OCC(O)CNc1cc(-c2cc3ccccc3o2)nc2ccccc12 (racemic)	263 to 265 °C
Cc1ccc(-c2cc(NCC(O)CO)c3ccccc3n2)cc1Cl.Cl (racemic)	230 to 231 °C
Cl.OCC(O)CNc1cc(CCc2ccccc2)nc2ccccc12 (racemic)	143 to 145 °C
CNCC(O)COc1cc(-c2ccc(OC)cc2)nc2cc(C)ccc12 (racemic)	140 to 142 °C
Cl.OCCNc1cc(-c2ccc3c(c2)CCCC3)nc2ccccc12 [Example 18]	250 to 252 °C
CNCC(O)COc1cc(-c2ccc(C)cc2)nc2cc(C)ccc12 (racemic)	146 to 150 °C
CCNCC(O)COc1cc(-c2ccccc2)nc2ccccc12.Cl (stereo not shown)	170 to 174 °C

Could you tell me which melting point is on file for Cl.OCC(O)CNc1cc(N2Cc3ccccc3C2)nc2ccccc12 (racemic) ?
295 to 301 °C
